- Assay system: P-gp (ABCB1) (Homo sapiens, UniProt P08183)
- Sequence (P08183 whole entry): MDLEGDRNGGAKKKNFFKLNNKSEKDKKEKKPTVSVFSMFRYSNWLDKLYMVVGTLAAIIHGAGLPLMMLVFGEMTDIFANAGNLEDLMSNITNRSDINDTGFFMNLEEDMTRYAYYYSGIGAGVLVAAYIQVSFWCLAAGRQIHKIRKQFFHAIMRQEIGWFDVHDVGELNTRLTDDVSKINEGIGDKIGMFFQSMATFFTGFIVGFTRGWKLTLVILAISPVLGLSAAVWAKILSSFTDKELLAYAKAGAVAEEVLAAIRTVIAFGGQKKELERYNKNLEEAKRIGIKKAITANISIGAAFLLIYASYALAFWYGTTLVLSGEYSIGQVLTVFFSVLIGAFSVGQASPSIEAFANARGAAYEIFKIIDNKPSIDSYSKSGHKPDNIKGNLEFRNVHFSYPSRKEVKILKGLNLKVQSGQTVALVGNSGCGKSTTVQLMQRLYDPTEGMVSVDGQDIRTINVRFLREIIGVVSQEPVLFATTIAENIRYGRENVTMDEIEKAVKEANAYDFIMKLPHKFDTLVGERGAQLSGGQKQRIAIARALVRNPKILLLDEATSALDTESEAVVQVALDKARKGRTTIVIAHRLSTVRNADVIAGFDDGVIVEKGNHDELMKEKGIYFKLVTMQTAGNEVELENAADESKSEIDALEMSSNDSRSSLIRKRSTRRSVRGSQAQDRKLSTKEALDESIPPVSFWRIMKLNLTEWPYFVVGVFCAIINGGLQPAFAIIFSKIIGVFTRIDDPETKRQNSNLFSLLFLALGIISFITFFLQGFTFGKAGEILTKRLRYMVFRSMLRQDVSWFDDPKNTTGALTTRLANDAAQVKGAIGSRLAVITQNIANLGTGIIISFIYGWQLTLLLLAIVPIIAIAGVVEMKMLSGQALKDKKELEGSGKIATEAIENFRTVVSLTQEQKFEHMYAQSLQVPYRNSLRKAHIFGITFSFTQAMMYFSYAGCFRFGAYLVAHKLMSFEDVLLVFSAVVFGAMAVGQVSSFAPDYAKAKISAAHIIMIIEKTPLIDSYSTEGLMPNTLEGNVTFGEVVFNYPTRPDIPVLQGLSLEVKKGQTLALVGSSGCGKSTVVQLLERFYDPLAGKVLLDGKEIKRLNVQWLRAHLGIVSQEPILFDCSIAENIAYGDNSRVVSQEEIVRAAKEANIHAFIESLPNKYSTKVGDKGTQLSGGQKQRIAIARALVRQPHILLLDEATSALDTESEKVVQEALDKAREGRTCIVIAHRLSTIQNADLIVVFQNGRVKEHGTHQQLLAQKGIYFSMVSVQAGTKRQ
- Method summary: Substrate activity at P-gp in human Caco-2 cells assessed as efflux ratio measured for 2 hrs by HPLC analysis
- Type: ADME, cell-based

| Given smiles | Prefix operator | efflux ratio at 2 h |
| --- | --- | --- |
| O=C(N[C@@H]1CC[C@@]2(O)[C@H]3Cc4ccc(O)c5c4[C@@]2(CCN3CC2CC2)[C@H]1O5)c1cc2ccccc2cn1 | = | 1.3 |
| O=C(N[C@@H]1CC[C@@]2(O)[C@H]3Cc4ccc(O)c5c4[C@@]2(CCN3CC2CC2)[C@H]1O5)c1ccncc1 | > | 10 |

The reported numbers originate from ChEMBL document CHEMBL5335847.
